# study.target: AeKir1 (Aedes aegypti, UniProt L0EQS9)
# Sequence (L0EQS9 entry or part of it): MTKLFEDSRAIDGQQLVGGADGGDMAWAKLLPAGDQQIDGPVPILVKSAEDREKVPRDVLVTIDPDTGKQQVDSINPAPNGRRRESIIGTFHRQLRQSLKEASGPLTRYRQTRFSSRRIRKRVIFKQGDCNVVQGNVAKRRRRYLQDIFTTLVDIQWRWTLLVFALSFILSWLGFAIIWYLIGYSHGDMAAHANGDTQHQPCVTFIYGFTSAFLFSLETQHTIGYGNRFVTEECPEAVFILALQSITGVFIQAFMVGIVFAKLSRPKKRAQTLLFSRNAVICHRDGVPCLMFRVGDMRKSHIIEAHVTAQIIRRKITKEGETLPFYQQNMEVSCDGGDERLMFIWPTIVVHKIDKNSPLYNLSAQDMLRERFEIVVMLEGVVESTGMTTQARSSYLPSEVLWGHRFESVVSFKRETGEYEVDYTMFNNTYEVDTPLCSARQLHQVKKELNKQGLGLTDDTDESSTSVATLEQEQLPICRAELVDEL
# protocol.details: Thallium (Tl+) flux assay of AeKir1 in T-REx-HEK-293 cells
# Format: cell-based
# particulars: AeKir1-mediated Tl+ flux, means ± SEM
quantity.measured: pIC50
Please keep in mind that pIC50 is minus log10 of the molar concentration; only the number is needed.

Look up pIC50 with AeKir1 (Aedes aegypti, UniProt L0EQS9) for this molecule: Cc1ccc(OCC(O)Cn2c(=N)n(Cc3ccccc3)c3ccccc32)cc1 (stereo not shown)
4.82
